test system: Mus musculus; assay: Anticonvulsant activity in Swiss mouse assessed as protection against seizures at 300 mg/kg, ip administered 60 mins before test by maximal electroshock seizure test; type: functional; conditions: route intraperitoneal
Value type: Activity (%)
Give bare numbers, in %.

Please review the entries below; each comes with its answer.
INSERT INTO assay_data (line_notation, meas_value) VALUES
  ('CCCCCCn1c(-c2cccc(Cl)c2Cl)n[nH]c1=S', 25),
  ('CCCCCCCn1c(-c2cccc(Cl)c2Cl)n[nH]c1=S', 25),
  ('CCCCCCCCCn1c(Cc2cccc(Cl)c2)n[nH]c1=S', 100),
  ('CCCCCCCCCCn1c(Cc2cccc(Cl)c2)n[nH]c1=S', 0),
  ('CCCCCCCCCCCCn1c(Cc2cccc(Cl)c2)n[nH]c1=S', 0),
  ('CCCCCCn1c(Cc2cccc(Cl)c2)n[nH]c1=S', 100),
  ('CCCCCn1c(Cc2cccc(Cl)c2)n[nH]c1=S', 100),
  ('CCCCn1c(-c2cccc(Cl)c2Cl)n[nH]c1=S', 25),
  ('CCCCCCCn1c(Cc2cccc(Cl)c2)n[nH]c1=S', 100),
  ('CCCCCn1c(-c2cccc(Cl)c2Cl)n[nH]c1=S', 62.5);

Please state, for each entry, its recorded Activity.
1. CCCCn1c(Cc2cccc(Cl)c2)n[nH]c1=S
2. CCCCCCCCn1c(Cc2cccc(Cl)c2)n[nH]c1=S
3. CCn1c(-c2cccc(Cl)c2Cl)n[nH]c1=S
4. CCn1c(Cc2cccc(Cl)c2)n[nH]c1=S

[100, 100, 0, 100]

// data source = ChEMBL document CHEMBL3351688
